- System: B.subtilis PCI 219
# MIC annotations
readout name: MIC

molecule=CCCCCCCCCCCCc1ccc2c(=S)cc[nH]c2c1 readout_name=MIC result="> 100 µg/mL"
molecule=COc1ccc2c(=S)cc[nH]c2c1 readout_name=MIC result="> 100 µg/mL"
molecule=COCc1ccc2c(=S)cc[nH]c2c1 readout_name=MIC result="100 µg/mL"
molecule=CSc1ccc2c(=S)cc[nH]c2c1 readout_name=MIC result="> 100 µg/mL"
molecule="S=c1cc[nH]c2cc(/C=C/c3ccccc3)ccc12 [compound 32, trans-7-Styrylquinoline-4(1H)-thione]" readout_name=MIC result="> 100 µg/mL"
molecule=CCCOc1ccc2c(=S)cc[nH]c2c1 readout_name=MIC result="> 100 µg/mL"
molecule=CS(=O)(=O)Oc1ccc2c(=S)cc[nH]c2c1 readout_name=MIC result="> 100 µg/mL"
molecule="Cc1c(OCC(F)(F)F)ccnc1C[S+]([O-])c1nc2ccccc2[nH]1 (centres unmarked) [lansoprazole, reference compound]" readout_name=MIC result="> 100 µg/mL"

* * *

Reported MIC for target or system B.subtilis PCI 219, by entry.
readout name: MIC

smiles_representation=S=c1cc[nH]c2cc(N3CCNCC3)ccc12 experimental_target="B.subtilis PCI 219" readout_name=MIC result="> 100 µg/mL"
smiles_representation=CC(C)Sc1ccc2c(=S)cc[nH]c2c1 experimental_target="B.subtilis PCI 219" readout_name=MIC result="> 100 µg/mL"
smiles_representation=CCCCCCOc1ccc2c(=S)cc[nH]c2c1 experimental_target="B.subtilis PCI 219" readout_name=MIC result="> 100 µg/mL"
smiles_representation=S=c1cc[nH]c2cc(COc3ccccc3)ccc12 experimental_target="B.subtilis PCI 219" readout_name=MIC result="> 100 µg/mL"
smiles_representation=CC(C)c1ccc2c(=S)cc[nH]c2c1 experimental_target="B.subtilis PCI 219" readout_name=MIC result="> 100 µg/mL"
smiles_representation=S=c1cc[nH]c2c3c(ccc12)CCCC3 experimental_target="B.subtilis PCI 219" readout_name=MIC result="> 100 µg/mL"
smiles_representation=CC(C)Oc1ccc2c(=S)cc[nH]c2c1 experimental_target="B.subtilis PCI 219" readout_name=MIC result="> 100 µg/mL"
smiles_representation=CC(=O)OCc1ccc2c(=S)cc[nH]c2c1 experimental_target="B.subtilis PCI 219" readout_name=MIC result="100 µg/mL"

* * *

- System: B.subtilis PCI 219
- procedure summary: Antibacterial Test 2: agar plate dilution method (aerobic MIC method), B.subtilis
- Format: cell-based
- stated conditions: Bacillus subtilis, PCI219, sensitive-disk agar medium-N
# MIC annotations
readout name: MIC

compound="S=c1cc[nH]c2c1ccc1ccccc12 [compound 39, Benzo[h]quinoline-4(1H)-thione]" readout_name=MIC result="> 100 µg/mL"
compound="CN(C)c1ccc2c(=S)cc[nH]c2c1 [compound 48]" readout_name=MIC result="> 100 µg/mL"
compound="S=c1cc[nH]c2cc(Cc3ccccc3)ccc12 [compound 47, 7-Benzylquinoline-4(1H)-thione]" readout_name=MIC result="> 100 µg/mL"
compound="O=C(O)CCCCCOc1ccc2c(=S)cc[nH]c2c1 [compound 51]" readout_name=MIC result="> 100 µg/mL"
compound="CC1(C)S[C@@H]2[C@H](NC(=O)[C@H](N)c3ccc(O)cc3)C(=O)N2[C@H]1C(=O)O [amoxicillin, reference compound]" readout_name=MIC result="0.2 µg/mL"
